From: patent US20250092044A1

# EXPERIMENT_SUMMARY: In Vivo Pharmacokinetics (cynomolgus monkey)
# Parameters: species or system Cynomolgus monkeys
# CONDITION_PARAMETERS: both sexes, plasma, PO, 1 mg/kg
# Method: Test compounds were administered to male Sprague Dawley rats or male and female Cynomolgus monkeys intravenously or via oral gavage. […] The plasma concentrations of test compounds were determined by LC-MS/MS methods. The measured plasma concentrations were used to calculate PK parameters by standard noncompartmental methods using Phoenix® WinNonlin software program (version 8.0, Pharsight Corporation) or similar software. […]

>  <STRUCTURE_NOTATION>
[2H]C([2H])([2H])N(Cc1ccc(-c2[nH]c3ncc4c(c3c2-c2ccc3c(c2)CC(C)(C)O3)n([C@@H]2CC[C@@H](NC(=O)OC)C2)c(=O)n4C([2H])([2H])[2H])cc1)C([2H])([2H])[2H]

>  <AUC>
≤ 0.5 µM·h

$$$$

====

# EXPERIMENT_SUMMARY: FaSSIF Solubility Assay
# Format: physicochemical
# CONDITION_PARAMETERS: FaSSIF (fasted state simulated intestinal fluid), 25 °C, pH 6.5, fassif, thermodynamic from solid, FaSSIF pH=6.5, 25° C., read-out: FaSSIF solubility
TEST_READOUT: solubility at 24 h

>  <COMPOUND>
COc1nn(C)cc1-c1[nH]c2ncc3c(c2c1-c1ccc2c(cnn2C)c1)n(C1CCOCC1)c(=O)n3C [Comparative Example A, reference compound]

>  <ASSAY_VALUE>
< 20 µg/mL

$$$$
>  <COMPOUND>
COc1ccc(-c2c(-c3cnn(Cc4ccncc4)c3)[nH]c3ncc4c(c23)n(C2CCCC2)c(=O)n4C)cc1 [Comparative Example D, reference compound]

>  <ASSAY_VALUE>
< 20 µg/mL

$$$$
>  <COMPOUND>
CN(C)C(=O)c1ccc(-c2[nH]c3ncc4c(c3c2-c2ccc3c(cnn3C)c2)n(C2CCCC2)c(=O)n4C)cc1 [Comparative Example F, reference compound]

>  <ASSAY_VALUE>
< 20 µg/mL

$$$$

====

UniProt:P36888: recorded IC50 for assorted compounds
TEST_READOUT: IC50

>  <COMPOUND>
COC(=O)N[C@@H]1CC[C@@H](n2c(=O)n(C)c3cnc4[nH]c(-c5ccc(C(=O)NCC(F)(F)F)c(F)c5)c(-c5ccc6c(cnn6C(C)C)c5)c4c32)C1

>  <TEST_SYSTEM>
UniProt:P36888

>  <TEST_READOUT>
IC50

>  <ASSAY_VALUE>
> 2500 nM

$$$$
>  <COMPOUND>
COC(=O)N[C@@H]1CC[C@@H](n2c(=O)n(C)c3cnc4[nH]c(-c5ccc(C(=O)NCCCNc6ccccc6)c(F)c5)c(-c5ccc6c(cnn6C(C)C)c5)c4c32)C1

>  <TEST_SYSTEM>
UniProt:P36888

>  <TEST_READOUT>
IC50

>  <ASSAY_VALUE>
> 2500 nM

$$$$
>  <COMPOUND>
Cn1c(=O)n(C2CCCC2)c2c3c(-c4ccccc4)c(-c4ccc(CN5CCC(S(C)(=O)=O)CC5)cc4)[nH]c3ncc21 [Comparative Example H, reference compound]

>  <TEST_SYSTEM>
UniProt:P36888

>  <TEST_READOUT>
IC50

>  <ASSAY_VALUE>
25 to 250 nM

$$$$

====

# EXPERIMENT_SUMMARY: FaSSIF Solubility Assay
# Type: physicochemical
# CONDITION_PARAMETERS: FaSSIF (fasted state simulated intestinal fluid), 25 °C, pH 6.5, fassif, thermodynamic from solid, FaSSIF pH=6.5, 25° C., read-out: Solubility Fassif
Each record here notes measured solubility at 24 h.

>  <COMPOUND>
[2H]C([2H])([2H])n1c(=O)n([C@@H]2CC[C@@H](NC(=O)OC)C2)c2c3c(-c4ccc5c(cnn5C(C)C)c4)c(-c4ccc(CN(C)C)cc4)[nH]c3ncc21

>  <solubility at 24 h>
> 0.5 mg/mL

$$$$
>  <COMPOUND>
COc1nn(C)cc1-c1[nH]c2ncc3c(c2c1-c1ccc2c(cnn2C)c1)n([C@H]1CC[C@@H](CC#N)CC1)c(=O)n3C [E, reference compound]

>  <solubility at 24 h>
≤ 0.05 mg/mL

$$$$
>  <COMPOUND>
COc1nn(C)cc1-c1[nH]c2ncc3c(c2c1-c1ccc2c(cnn2C)c1)n(C1CCOCC1)c(=O)n3C [Comparative Example A, reference compound]

>  <solubility at 24 h>
≤ 0.05 mg/mL

$$$$
>  <COMPOUND>
[2H]C([2H])([2H])N(Cc1ccc(-c2[nH]c3ncc4c(c3c2-c2ccc3c(c2)CC(C)(C)O3)n([C@@H]2CC[C@@H](NC(=O)OC)C2)c(=O)n4C([2H])([2H])[2H])cc1)C([2H])([2H])[2H]

>  <solubility at 24 h>
0.05 to 0.5 mg/mL

$$$$
>  <COMPOUND>
[2H]C([2H])([2H])N(Cc1ccc(-c2[nH]c3ncc4c(c3c2-c2ccc(OCCOC)cc2)n([C@@H]2CC[C@@H](NC(=O)OC)C2)c(=O)n4C([2H])([2H])[2H])cc1)C([2H])([2H])[2H]

>  <solubility at 24 h>
> 0.5 mg/mL

$$$$

====

FLT3 (Homo sapiens (Human), UniProt P36888): recorded pIC50 for assorted compounds
Sequence (P36888 27-993, species assumed): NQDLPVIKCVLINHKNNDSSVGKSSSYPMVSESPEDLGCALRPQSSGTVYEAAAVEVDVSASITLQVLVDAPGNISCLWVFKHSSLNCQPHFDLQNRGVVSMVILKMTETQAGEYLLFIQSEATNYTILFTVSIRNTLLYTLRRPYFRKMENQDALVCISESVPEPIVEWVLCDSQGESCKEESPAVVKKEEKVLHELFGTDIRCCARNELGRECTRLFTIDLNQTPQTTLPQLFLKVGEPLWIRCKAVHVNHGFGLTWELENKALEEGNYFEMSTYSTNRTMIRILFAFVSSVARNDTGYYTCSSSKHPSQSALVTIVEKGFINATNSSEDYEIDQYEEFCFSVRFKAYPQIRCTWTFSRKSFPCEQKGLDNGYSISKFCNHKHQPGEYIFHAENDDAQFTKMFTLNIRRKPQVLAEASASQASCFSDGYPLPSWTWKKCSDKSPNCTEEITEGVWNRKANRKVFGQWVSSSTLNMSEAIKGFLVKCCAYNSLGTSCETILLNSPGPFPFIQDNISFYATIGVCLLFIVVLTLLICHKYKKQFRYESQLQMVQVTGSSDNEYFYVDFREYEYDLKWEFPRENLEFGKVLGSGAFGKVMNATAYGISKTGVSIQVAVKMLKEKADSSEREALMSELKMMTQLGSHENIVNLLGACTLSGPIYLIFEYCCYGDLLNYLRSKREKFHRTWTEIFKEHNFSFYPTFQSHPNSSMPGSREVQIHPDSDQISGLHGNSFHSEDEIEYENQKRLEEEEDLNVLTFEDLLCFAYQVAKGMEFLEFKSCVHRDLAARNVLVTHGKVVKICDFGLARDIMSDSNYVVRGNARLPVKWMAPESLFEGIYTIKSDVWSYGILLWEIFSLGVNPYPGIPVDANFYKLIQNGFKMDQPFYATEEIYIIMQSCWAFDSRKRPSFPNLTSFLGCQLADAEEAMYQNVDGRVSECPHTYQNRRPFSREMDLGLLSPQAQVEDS
pIC50: −log10 of the molar value.
TEST_READOUT: pIC50

>  <COMPOUND>
COC(=O)N[C@@H]1CC[C@@H](n2c(=O)n(C)c3cnc4[nH]c(-c5ccc(C(=O)N6CCOCC6)c(F)c5)c(-c5ccc6c(cnn6C(C)C)c5)c4c32)C1

>  <ASSAY_VALUE>
5.60 to 5.90

$$$$
>  <COMPOUND>
COCCNC(=O)c1ccc(-c2[nH]c3ncc4c(c3c2-c2ccc3c(cnn3C(C)C)c2)n([C@@H]2CC[C@@H](NC(=O)OC)C2)c(=O)n4C)cc1F

>  <ASSAY_VALUE>
< 5.60

$$$$
>  <COMPOUND>
COC(=O)N[C@@H]1CC[C@@H](n2c(=O)n(C)c3cnc4[nH]c(-c5ccc(CN(C)C)cc5)c(-c5ccc(F)cc5)c4c32)C1

>  <ASSAY_VALUE>
5.90 to 6.60

$$$$
>  <COMPOUND>
[2H]C([2H])([2H])n1c(=O)n([C@@H]2CC[C@@H](NC(=O)OC)C2)c2c3c(-c4ccc5c(c4)COC5(C)C)c(-c4ccc(C(=O)N(C)C)cc4)[nH]c3ncc21

>  <ASSAY_VALUE>
5.90 to 6.60

$$$$
>  <COMPOUND>
Cn1cc(-c2[nH]c3ncc4c(c3c2-c2ccc3c(cnn3C)c2)n([C@H]2CC[C@@H](CC#N)CC2)c(=O)n4C)cn1 [Comparative Example C, reference compound]

>  <ASSAY_VALUE>
> 7.60

$$$$

====

# EXPERIMENT_SUMMARY: In Vivo Pharmacokinetics (mouse)
# CONDITION_PARAMETERS: plasma, PO

>  <COMPOUND>
COc1nn(C)cc1-c1[nH]c2ncc3c(c2c1-c1ccc2c(cnn2C)c1)n([C@H]1CC[C@@H](CC#N)CC1)c(=O)n3C [E, reference compound]

>  <AUC>
> 1.5 µM·h

$$$$
>  <COMPOUND>
COc1nn(C)cc1-c1[nH]c2ncc3c(c2c1-c1ccc2c(cnn2C)c1)n(C1CCOCC1)c(=O)n3C [Comparative Example A, reference compound]

>  <AUC>
> 1.5 µM·h

$$$$

====

Each record here notes measured IC50.
# TEST_SYSTEM: UniProtKB P36888

>  <MOLECULE>
[2H]C([2H])([2H])n1c(=O)n([C@@H]2CC[C@@H](NC(=O)OC)C2)c2c3c(-c4ccc5c(cnn5C(C)C)c4)c(-c4ccc(CN(C)C)cc4)[nH]c3ncc21 [Example 26]

>  <TEST_SYSTEM>
UniProtKB P36888

>  <IC50>
0.25 to 1.25 µM

$$$$
>  <MOLECULE>
CNC(=O)c1ccc(-c2[nH]c3ncc4c(c3c2-c2ccc3c(cnn3C(C)C)c2)n([C@@H]2CC[C@@H](NC(=O)OC)C2)c(=O)n4C)cc1 [Example 21]

>  <TEST_SYSTEM>
UniProtKB P36888

>  <IC50>
0.25 to 1.25 µM

$$$$
>  <MOLECULE>
[2H]C([2H])([2H])N(Cc1ccc(-c2[nH]c3ncc4c(c3c2-c2ccc3c(c2)CC(C)(C)O3)n([C@@H]2CC[C@@H](NC(=O)OC)C2)c(=O)n4C([2H])([2H])[2H])cc1)C([2H])([2H])[2H] [Example 25]

>  <TEST_SYSTEM>
UniProtKB P36888

>  <IC50>
0.25 to 1.25 µM

$$$$
>  <MOLECULE>
COC(=O)N[C@@H]1CC[C@@H](n2c(=O)n(C)c3cnc4[nH]c(-c5ccc(C(=O)N6CCOCC6)cc5)c(-c5ccc6c(cnn6C(C)C)c5)c4c32)C1 [Example 20]

>  <TEST_SYSTEM>
UniProtKB P36888

>  <IC50>
0.25 to 1.25 µM

$$$$
>  <MOLECULE>
COC(=O)N[C@@H]1CC[C@@H](n2c(=O)n(C)c3cnc4[nH]c(-c5ccc(C(=O)NC6CC6C(F)(F)F)c(F)c5)c(-c5ccc6c(cnn6C(C)C)c5)c4c32)C1 (some centres unmarked) [Example 10]

>  <TEST_SYSTEM>
UniProtKB P36888

>  <IC50>
> 2.5 µM

$$$$
